Target: T1, Mouse TREM2, on cells (mouse, UniProt Q99NH8 19-227)
T1 construct: whole, on cells; also called mouse TREM2 HEK
T1 sequence (looked up): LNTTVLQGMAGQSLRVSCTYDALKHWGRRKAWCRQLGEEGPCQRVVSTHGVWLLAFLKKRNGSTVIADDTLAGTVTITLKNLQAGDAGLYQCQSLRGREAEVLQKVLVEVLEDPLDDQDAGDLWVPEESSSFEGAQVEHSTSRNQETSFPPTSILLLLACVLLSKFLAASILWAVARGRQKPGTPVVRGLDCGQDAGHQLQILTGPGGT
Experiment: Table 5, cell binding: Mouse TREM2 HEK
observation.type: binding result

binder | measurement
42E8.H1 (antibody, V domains shown, Mouse hybridoma antibody, Ig2a, k; also called RS8.42E8.H1) VH: DVQLQESGPGLVKPSQSLSLTCTVTGYSITSDYAWNWIRQFPGNKLEWMGYINYSGRTIYNPSLKSRISITRDTSKNHFFLQLISVTTEDTATYYCARWNGNYGFAYWGQGTLVTVSA VL: DVVMTQNPLSLPVSLGDQASISCRSSQSLVHINGNTYLHWYLQKPGQSPKLLIYKVSNRFSGVPDRFSGSGSGTDFTLKISRVEAEDLGVYFCSQTTHALFTFGSGTKLEIK | no binding
40H3.A4 (antibody, V domains shown, Mouse hybridoma antibody, isotype N.D; also called RS8.40H3.A4) VH: EVQLQQSGAEVVKPGASVKLSCTASGFNIKDTYMHWVKQRPEQGLEWIGRIDPANGNTKYDPKFQGKATITADTSSNTAYLQLSSLTSEDTAVYYCATLFAYWGQGTLVTVSA VL: DIVMTQAAFSNPVTLGTSASISCRSSKSLLHSNGITYLYWYLQKPGQSPQLLIYQMSNLASGVPDRFSSSGSGIDFTLRINRVEAEDVGVYYCAQNLELPTFGSGTKLEIK | no binding
26D2.D1 (antibody, IgG2a, V domains shown, Mouse hybridoma antibody, IgG2a, k; also called RS8.26D2.D1) VH: EVQLQQSGPELVKPGASVKMSCKASGYTFTSYVMHWVKQKPGQGLEWIGYINPYTDGTKYNEKFKGKATLTSDKSSSTAYMDLSSLTSEDSAVYYCARGEVRRYALDYWGQGTSVTVSS VL: DIQMTQSSSSFSVSLGDRVTITCKASEDIYNRLAWYQQKPGNAPRLLISGATSLETGVPSRFSGSGSGKDYTLSITSLQTEDVATYYCQQYWSTPWTFGGGTKLEIK | no binding
